Where do the numbers come from? From BindingDB's records for doi:10.1074/jbc.M805358200.

Biological target: Cyclin-dependent kinase 7 (Homo sapiens)
Sequence (P50613 whole entry): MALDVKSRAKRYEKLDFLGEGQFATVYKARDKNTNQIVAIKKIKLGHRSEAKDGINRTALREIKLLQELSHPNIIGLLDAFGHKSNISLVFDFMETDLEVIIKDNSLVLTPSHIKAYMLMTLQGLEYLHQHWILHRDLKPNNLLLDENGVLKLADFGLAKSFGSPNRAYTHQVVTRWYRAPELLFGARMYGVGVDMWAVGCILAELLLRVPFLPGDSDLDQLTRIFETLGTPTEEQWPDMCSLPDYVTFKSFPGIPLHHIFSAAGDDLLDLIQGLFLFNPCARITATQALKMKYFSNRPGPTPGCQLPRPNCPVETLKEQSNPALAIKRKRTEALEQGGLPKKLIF
endpointLabel: IC50

Per the record, O=C1NCCCc2c1oc1ccc(O)cc21 has IC50 of 15.3 µM

---

Target: Serine/threonine-protein kinase D1 (Homo sapiens)
Sequence (Q15139 whole entry): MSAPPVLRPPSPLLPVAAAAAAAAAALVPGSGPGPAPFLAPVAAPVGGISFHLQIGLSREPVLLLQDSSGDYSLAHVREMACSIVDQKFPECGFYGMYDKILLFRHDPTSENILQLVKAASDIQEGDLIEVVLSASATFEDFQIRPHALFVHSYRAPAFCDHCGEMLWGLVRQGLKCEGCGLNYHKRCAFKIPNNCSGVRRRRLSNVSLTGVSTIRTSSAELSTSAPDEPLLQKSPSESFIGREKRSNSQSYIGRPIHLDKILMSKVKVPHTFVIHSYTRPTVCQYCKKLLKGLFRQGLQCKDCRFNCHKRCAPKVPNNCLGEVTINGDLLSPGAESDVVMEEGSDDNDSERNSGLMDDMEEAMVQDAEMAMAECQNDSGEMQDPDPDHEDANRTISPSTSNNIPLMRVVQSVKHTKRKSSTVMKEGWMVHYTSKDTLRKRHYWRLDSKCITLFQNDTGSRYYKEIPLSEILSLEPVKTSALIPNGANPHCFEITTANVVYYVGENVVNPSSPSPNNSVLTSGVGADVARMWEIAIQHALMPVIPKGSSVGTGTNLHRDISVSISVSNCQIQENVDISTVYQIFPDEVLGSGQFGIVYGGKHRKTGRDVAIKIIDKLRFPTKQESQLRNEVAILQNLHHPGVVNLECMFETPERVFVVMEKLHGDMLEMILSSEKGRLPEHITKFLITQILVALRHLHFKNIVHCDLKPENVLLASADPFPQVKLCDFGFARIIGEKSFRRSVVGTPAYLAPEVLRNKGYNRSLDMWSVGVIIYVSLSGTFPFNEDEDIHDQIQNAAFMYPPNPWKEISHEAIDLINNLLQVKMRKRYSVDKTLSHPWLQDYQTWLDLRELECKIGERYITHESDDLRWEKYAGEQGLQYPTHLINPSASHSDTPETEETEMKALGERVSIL
Assay: IMAP-Based HTS FP Assay/ TR-FRET Assay
endpointLabel: IC50 (µM)
Your answer should be a plain number; it is taken to be in µM.

Per the record, O=C1NCCCc2c1oc1ccc(O)cc21 has IC50 of 0.5
